Source listed as patent EP4700040A1.

- Tested on: PCT
- experiment: Luciferase dual-antibody complementary activation assay for PCT detection, clone supernatants, retest with CTZ-h (Example 1)
- Type: biochemical, human
- recorded conditions: luminescence signal value with MBP-PCT 3.3 ng/ml; large subunit-rSCFV5 50 nM; supernatant; retest CTZ-h 25 µM, read after 60 s
quantity measured: PCT+

sequence string | PCT+
VEGYRLFNRKS [RB252] | 70963
VTGYRLFEEIL [P114, reference compound] | 5058

A = VEGYRLFNRKW [RB223]
B = VEGYRLFERIW [RB113]
Of A and B , which one carries the higher reported PCT+? # answer = label of selected item B

1 = VEGYRLFDRKL [RB209]
2 = VEGYRLFNKEW [RB284]
I need your help: which of the pair 1 , 2 has higher PCT+? // respond with label for picked entry 1

A = VEGYRLFEKVW [RB085]
B = VEGYRLFDKKW [RB239]
C = VEGYRLFERKL [RB157]
D = VEGYRLHEKIS [RA128]
E = VEGYRLFERKS [RB033]
Order each entry by recorded PCT+, climbing from the minimum. Use the labels to give the ranking in the order requested. D, B, A, C, E
(D: 17891, B: 31936, A: 47227, C: 74319, E: 109352)
